# Test system: Jurkat E6.1 cells
# procedure.text: Anti-Fas induced apoptosis assay (DNA fragmentation)
# Format: cell-based
# run.conditions: Homo sapiens, anti-Fas antibody CH-11 10 ng/ml, 16-18 hrs, DNA fragmentation OD405
quantity.measured: IC50

Some compounds with known IC50 results, for comparison:
* O=C(O)CC(NC(=O)c1cccc(Oc2ccccc2)c1)C(=O)CF (stereo not drawn) [Example 37] | < 200 nM
* O=C(O)CC(NC(=O)c1cccc(F)c1)C(=O)CF (stereo not drawn) [Example 10] | < 200 nM

Proceed to the following item.
Input: Requested read-out: IC50. Entry: O=C(O)CC(NC(=O)c1cccc2ccccc12)C(=O)CF (stereo not drawn) [Example 22]
Output: < 200 nM

---

# Tested on: Jurkat E6.1 cells
# procedure.text: Anti-Fas induced apoptosis assay (DNA fragmentation)
# Type: cell-based
# run.conditions: Homo sapiens, anti-Fas antibody CH-11 10 ng/ml, 16-18 hrs, DNA fragmentation OD405
Counter-ions that a name gives are not always drawn.
Assign IC50 to each entry below.

Some solved entries appear below for comparison.
* O=C(O)CC(NC(=O)c1ccccc1)C(=O)CF (stereo not shown) [Example 1] | < 200 nM
* O=C(O)CC(NC(=O)c1ccc(Cl)c(Cl)c1)C(=O)CF (stereo not shown) [Example 7] | 200 to 1000 nM
* O=C(O)CC(NC(=O)c1cccnc1)C(=O)CF (stereo not shown) [Example 25, Trifluoroacetate Salt] | < 200 nM

Required: IC50, one value per compound below.
1. N#Cc1cccc(C(=O)NC(CC(=O)O)C(=O)CF)c1 (stereo not shown) [Example 19]
2. O=C(O)CC(NC(=O)c1ccc(C(F)(F)F)cc1)C(=O)CF (stereo not shown) [Example 13]
3. COc1cccc(C(=O)NC(CC(=O)O)C(=O)CF)c1 (stereo not shown) [Example 16]

Output:
200 to 1000 nM
> 1000 nM
< 200 nM

Each of the following entries comes with a recorded value; kindly state IC50 for each.
1. O=C(O)CC(NC(=O)c1ccccc1Cl)C(=O)CF (stereo not shown) [Example 4]
2. O=C(O)CC(NC(=O)c1cccs1)C(=O)CF (stereo not shown) [Example 28]
3. O=C(O)CC(NC(=O)c1ccc(-c2ccccc2)o1)C(=O)CF (stereo not shown) [Example 34]

Output:
< 200 nM
< 200 nM
200 to 1000 nM

Input: I have this compound here, O=C(O)CC(NC(=O)c1cc2ccccc2[nH]1)C(=O)CF (stereo not shown) [Example 31] , and I need its recorded IC50.
Output: > 1000 nM

These measurements were taken from patent US6632962B2.
